Data origin, for the record: ChEMBL document CHEMBL4431364

target.entity: Autotaxin (Homo sapiens)
assay.procedure: Inhibition of C-terminal FLAG tagged human recombinant ATX expressed in insect sf9 cells using FS-3 as substrate measured every 2 mins for 60 mins by FRET assay
# key: entry, value: pIC50
pIC50 (log units): -log10 of the concentration in mol/L.

Examples with their reported pIC50 follow.
* O=C(CCCOc1ccc(Cl)cc1Cl)N1CCN(c2ccc([N+](=O)[O-])cc2)CC1 | 5.40
* O=C(COc1cccc(C(F)(F)F)c1)N1CCN(c2ccc([N+](=O)[O-])cc2)CC1 | 5.31
* O=C(COc1ccc(Cl)cc1Cl)N1CCN(c2ccc([N+](=O)[O-])cc2)CC1 | 5.43
* O=C(COc1cccc(C(F)(F)F)c1)N1CCN(c2cccc([N+](=O)[O-])c2)CC1 | 5.34

Let us move to another entry and its pIC50.
**Query** Which pIC50 reading was recorded for the compound O=C(COc1ccccc1C(F)(F)F)N1CCN(c2ccc([N+](=O)[O-])cc2)CC1 ?
**Result** 5.04
